assay_summary: Stability in CD-1 mouse plasma assessed as parent compound remaining upto 120 mins by LC-MS analysis
Type: ADME, cell-free
settings: read-out: Stabilty
measure_name: remaining at 2 h (%)
Quick note: give the figure in %, leave out the unit.

Input line: Indicate its recorded remaining at 2 h; the compound in question is Cc1cc(C(=O)N[C@H](C(=O)NC2C(=O)N[C@@H](CC3CCNC3=O)/C=C/C(=O)OC/C=C/CCOC2c2ccccc2)C(C)C)no1 (stereo partly specified)
Output line: 5.6
